Test system: NCI-H1651
Experiment: relative viability (nuclei count vs DMSO), 5 days (fraction); higher = more cells survive
Conditions: first compound 0.253 µM
PROPERTY MEASURED: relative viability
Answer as a number with no unit attached.

Nc1cccc2c1CN(C1CCC(=O)NC1=O)C2=O (stereo not given) [Lenalidomide] + CCNC(=O)c1noc(-c2cc(C(C)C)c(O)cc2O)c1-c1ccc(CN2CCOCC2)cc1 [Luminespib] (partner 0.01 µM) : 0.713
Nc1cccc2c1CN(C1CCC(=O)NC1=O)C2=O (stereo not given) [Lenalidomide] + CC(=O)Nc1cccc(-n2c(=O)n(C3CC3)c(=O)c3c(Nc4ccc(I)cc4F)n(C)c(=O)c(C)c32)c1 [Trametinib] (partner 0.02 µM) : 0.79

Quick one: relative viability of Nc1cccc2c1CN(C1CCC(=O)NC1=O)C2=O (stereo not given) [Lenalidomide] + O=C(CCCCCCC(=O)Nc1ccccc1)NO [Vorinostat] (partner 1 µM) ?
0.624

Name the recorded relative viability for Nc1cccc2c1CN(C1CCC(=O)NC1=O)C2=O (stereo not given) [Lenalidomide] + CC(C)C[C@H](NC(=O)[C@H](Cc1ccccc1)NC(=O)c1cnccn1)B(O)O [Bortezomib] (partner 0.002 µM) .
0.923

State the recorded relative viability for this entry: Nc1cccc2c1CN(C1CCC(=O)NC1=O)C2=O (stereo not given) [Lenalidomide] + CS(=O)(=O)N1CCN(Cc2cc3nc(-c4cccc5[nH]ncc45)nc(N4CCOCC4)c3s2)CC1 [Pictilisib] (partner 1 µM)
0.674

----------
Tested on: HCC-44
Assay: relative viability (nuclei count vs DMSO), 5 days (fraction); higher = more cells survive
Settings: first compound 8 µM
PROPERTY MEASURED: relative viability
// return a plain number; no unit text

Consider the reported relative viability for these compounds:
Nc1cccc2c1CN(C1CCC(=O)NC1=O)C2=O (centres undefined) [Lenalidomide] + CS(=O)(=O)CCNCc1ccc(-c2ccc3ncnc(Nc4ccc(OCc5cccc(F)c5)c(Cl)c4)c3c2)o1 [Lapatinib] (partner 2 µM) : 0.924
Nc1cccc2c1CN(C1CCC(=O)NC1=O)C2=O (centres undefined) [Lenalidomide] + COc1cccc2cc(-c3nc([C@H]4CC[C@H](C(=O)O)CC4)n4ncnc(N)c34)[nH]c12 [OSI-027] (partner 0.5 µM) : 0.512

Data request, read-out relative viability, for Nc1cccc2c1CN(C1CCC(=O)NC1=O)C2=O (centres undefined) [Lenalidomide] + O=C(c1cc(Cc2n[nH]c(=O)c3ccccc23)ccc1F)N1CCN(C(=O)C2CC2)CC1 [Olaparib] (partner 8 µM)
1.05

// query relative viability value for entry Nc1cccc2c1CN(C1CCC(=O)NC1=O)C2=O (centres undefined) [Lenalidomide] + CC1(C)CCC(c2ccc(Cl)cc2)=C(CN2CCN(c3ccc(C(=O)NS(=O)(=O)c4ccc(N[C@H](CCN5CCOCC5)CSc5ccccc5)c(S(=O)(=O)C(F)(F)F)c4)cc3)CC2)C1 [Navitoclax] (partner 0.5 µM)
0.917

----------
System: NCI-H2085
Experiment: relative viability (nuclei count vs DMSO), 5 days (fraction); higher = more cells survive
Settings: first compound 2 µM
PROPERTY MEASURED: relative viability

Please look up its relative viability: CN1CCN(CCOc2cc(OC3CCOCC3)c3c(Nc4c(Cl)ccc5c4OCO5)ncnc3c2)CC1 [Saracatinib] + C[C@@H](Oc1cc(-c2cnn(C3CCNCC3)c2)cnc1N)c1c(Cl)ccc(F)c1Cl [Crizotinib] (partner 1 µM)
0.755

Fill in: relative viability of CN1CCN(CCOc2cc(OC3CCOCC3)c3c(Nc4c(Cl)ccc5c4OCO5)ncnc3c2)CC1 [Saracatinib] + O=C(c1cc(Cc2n[nH]c(=O)c3ccccc23)ccc1F)N1CCN(C(=O)C2CC2)CC1 [Olaparib] (partner 8 µM) is ___
0.863

// returns reported relative viability for input Cc1csc(=NC2CCCCC2)n1/N=C/c1ccc(O)c(O)c1O [MIM1] + N=C(N)NC(=N)NCCc1ccccc1 [Phenformin] (partner 250 µM)
0.788

Endpoint output: relative viability of CN1CCN(CCOc2cc(OC3CCOCC3)c3c(Nc4c(Cl)ccc5c4OCO5)ncnc3c2)CC1 [Saracatinib] + CS(=O)(=O)N1CCN(Cc2cc3nc(-c4cccc5[nH]ncc45)nc(N4CCOCC4)c3s2)CC1 [Pictilisib] (partner 1 µM) . Value?
0.377

----------
Test system: NCI-H1651
Assay: relative viability (nuclei count vs DMSO), 5 days (fraction); higher = more cells survive
Conditions: first compound 20 µM
The label met is reserved for relative viability strictly under 0.7; not met covers values equal to or above it.

Cc1csc(=NC2CCCCC2)n1/N=C/c1ccc(O)c(O)c1O [MIM1] + CC(=O)Nc1cccc(-n2c(=O)n(C3CC3)c(=O)c3c(Nc4ccc(I)cc4F)n(C)c(=O)c(C)c32)c1 [Trametinib] (partner 0.02 µM) : not met

Input Cc1csc(=NC2CCCCC2)n1/N=C/c1ccc(O)c(O)c1O [MIM1] + C[C@@H](Oc1cc(-c2cnn(C3CCNCC3)c2)cnc1N)c1c(Cl)ccc(F)c1Cl [Crizotinib] (partner 1 µM) ; condition: relative viability strictly below 0.7. Does it hold?
met

Is the reported relative viability for Cc1csc(=NC2CCCCC2)n1/N=C/c1ccc(O)c(O)c1O [MIM1] + CS(=O)(=O)CCNCc1ccc(-c2ccc3ncnc(Nc4ccc(OCc5cccc(F)c5)c(Cl)c4)c3c2)o1 [Lapatinib] (partner 2 µM) strictly below 0.7?
met

is_below(relative viability, 0.7) for Cc1csc(=NC2CCCCC2)n1/N=C/c1ccc(O)c(O)c1O [MIM1] + COc1cc2c(Oc3ccc(NC(=O)C4(C(=O)Nc5ccc(F)cc5)CC4)cc3F)ccnc2cc1OCCCN1CCOCC1 [Foretinib] (partner 0.25 µM) ?
met

Is relative viability strictly under 0.7 for the entry Cc1csc(=NC2CCCCC2)n1/N=C/c1ccc(O)c(O)c1O [MIM1] + Cc1nc(Nc2ncc(C(=O)Nc3c(C)cccc3Cl)s2)cc(N2CCN(CCO)CC2)n1 [Dasatinib] (partner 0.075 µM) ?
met

----------
Test system: HCC-827
Experiment: relative viability (nuclei count vs DMSO), 5 days (fraction); higher = more cells survive
Settings: first compound 2 µM
With a cut-off of 0.2, any relative viability strictly below it is called true; any relative viability meeting it or above is called false.

Cc1csc(=NC2CCCCC2)n1/N=C/c1ccc(O)c(O)c1O [MIM1] + C[C@@H](Oc1cc(-c2cnn(C3CCNCC3)c2)cnc1N)c1c(Cl)ccc(F)c1Cl [Crizotinib] (partner 1 µM) : false
CN1CCN(CCOc2cc(OC3CCOCC3)c3c(Nc4c(Cl)ccc5c4OCO5)ncnc3c2)CC1 [Saracatinib] + O=C(CCCCCCC(=O)Nc1ccccc1)NO [Vorinostat] (partner 1 µM) : true
Cc1csc(=NC2CCCCC2)n1/N=C/c1ccc(O)c(O)c1O [MIM1] + Cc1nc(Nc2ncc(C(=O)Nc3c(C)cccc3Cl)s2)cc(N2CCN(CCO)CC2)n1 [Dasatinib] (partner 0.075 µM) : false

Please determine if Cc1csc(=NC2CCCCC2)n1/N=C/c1ccc(O)c(O)c1O [MIM1] + CC(=O)c1c(C)c2cnc(Nc3ccc(N4CCNCC4)cn3)nc2n(C2CCCC2)c1=O [Palbociclib] (partner 0.5 µM) is below 0.2 in terms of relative viability.
false

# TODO verify relative viability < 0.2 strictly for this compound: Cc1csc(=NC2CCCCC2)n1/N=C/c1ccc(O)c(O)c1O [MIM1] + NC(=O)Nc1cc(-c2cccc(F)c2)sc1C(=O)N[C@H]1CCCNC1 [AZD7762] (partner 0.2 µM)
true

Is 0.2 strictly greater than the compound's reported relative viability? compound: CN1CCN(CCOc2cc(OC3CCOCC3)c3c(Nc4c(Cl)ccc5c4OCO5)ncnc3c2)CC1 [Saracatinib] + CC1(C)CCC(c2ccc(Cl)cc2)=C(CN2CCN(c3ccc(C(=O)NS(=O)(=O)c4ccc(N[C@H](CCN5CCOCC5)CSc5ccccc5)c(S(=O)(=O)C(F)(F)F)c4)cc3)CC2)C1 [Navitoclax] (partner 0.5 µM)
true

Here's an entry: CN1CCN(CCOc2cc(OC3CCOCC3)c3c(Nc4c(Cl)ccc5c4OCO5)ncnc3c2)CC1 [Saracatinib] + Nc1ncn([C@H]2C[C@H](O)[C@@H](CO)O2)c(=O)n1 [Decitabine] (partner 2 µM) . Is its relative viability below 0.2?
true

Please state whether relative viability is below 0.2 for Cc1csc(=NC2CCCCC2)n1/N=C/c1ccc(O)c(O)c1O [MIM1] + COc1cc2c(Oc3ccc(NC(=O)C4(C(=O)Nc5ccc(F)cc5)CC4)cc3F)ccnc2cc1OCCCN1CCOCC1 [Foretinib] (partner 0.25 µM)
false

----------
relative viability values by entry
Test system: HARA
Test: relative viability (nuclei count vs DMSO), 5 days (fraction); higher = more cells survive
Conditions: first compound 0.006325 µM

# annotated cases, reported relative viability shown
CCNC(=O)c1noc(-c2cc(C(C)C)c(O)cc2O)c1-c1ccc(CN2CCOCC2)cc1 [Luminespib] + O=C(c1cc(Cc2n[nH]c(=O)c3ccccc23)ccc1F)N1CCN(C(=O)C2CC2)CC1 [Olaparib] (partner 8 µM) : 0.814
CCNC(=O)c1noc(-c2cc(C(C)C)c(O)cc2O)c1-c1ccc(CN2CCOCC2)cc1 [Luminespib] + C[C@@H](Oc1cc(-c2cnn(C3CCNCC3)c2)cnc1N)c1c(Cl)ccc(F)c1Cl [Crizotinib] (partner 1 µM) : 0.957

I am curious: what relative viability value has been reported for CCNC(=O)c1noc(-c2cc(C(C)C)c(O)cc2O)c1-c1ccc(CN2CCOCC2)cc1 [Luminespib] + COc1cccc2cc(-c3nc([C@H]4CC[C@H](C(=O)O)CC4)n4ncnc(N)c34)[nH]c12 [OSI-027] (partner 0.5 µM) ?
0.281

The measured values listed here are drawn from the supplement of paper PMC10307832.
